B1: Hairpin Ribozyme (parent)
chain: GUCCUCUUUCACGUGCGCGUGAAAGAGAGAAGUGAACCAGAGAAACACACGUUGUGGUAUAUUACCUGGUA

- Variants of: B1
- assay.method.text: self-cleavage, relative activity (ratio to wild type); higher = more cleavage; co-transcriptional
Binary classification by self-cleavage, with 0.2 as an inclusive lower bound for Y; all other cases are N.

U2A G13U; N
A43C G68A; N
U9A C48U; N
U2A U60C; Y
U8C G68A; N

Prompt line: Evaluate U2A A22U : self-cleavage at minimum 0.2?
Response line: Y

Prompt line: Does the reported self-cleavage for A11C A44C fall at or above the 0.2 mark?
Response line: N

Prompt line: Has C48U G51A a recorded self-cleavage greater than or equal to 0.2?
Response line: N

Prompt line: # check: self-cleavage of A23C A31G is greater than or equal to 0.2
Response line: Y

Prompt line: Check if self-cleavage >= 0.2 (inclusive). Item: U7A C12G
Response line: Y

Prompt line: Could you please find out whether U9C C18U has self-cleavage that meets 0.2 or exceeds it?
Response line: Y

Prompt line: Is self-cleavage for U14A A26C at or above 0.2?
Response line: Y

Prompt line: // inclusive: self-cleavage at least 0.2? input: C16U G51U
Response line: Y

Prompt line: Could you please find out whether A31G U55A has self-cleavage that meets 0.2 or exceeds it?
Response line: N

Prompt line: Item G13U C48G with self-cleavage of 0.2 or above?
Response line: N

Prompt line: For this variant, is measured self-cleavage 0.2 or higher? C38G U70A
Response line: N

Prompt line: Please tell me: is the variant A23U A64G at or over 0.2 in terms of self-cleavage?
Response line: Y

Prompt line: For this variant, is measured self-cleavage 0.2 or higher? A22C G51U
Response line: Y
